- protocol_notes: gradient 5% acetonitrile 3 min, to 50% in 2 min, to 85% in 15 min, held 3 min, 100 µL/min
- condition_description: column: Zorbax Extend-C18 2.1 x 50 mm; eluents: water / acetonitrile, 0.1% formic acid
value_kind: RP-LC retention time (s)

Example compounds with recorded RP-LC retention time:
INSERT INTO measurements (compound, value_kind, measurement) VALUES
  ('COc1cccc(S(=O)(=O)N2C[C@@H](F)C[C@H]2C(=O)N2CCc3ccccc3C2)c1', 'RP-LC retention time', 904),
  ('CC(C)c1noc(-c2cc(=O)n(CC(=O)Nc3ccc4c(c3)OCO4)c3ccccc23)n1', 'RP-LC retention time', 956),
  ('COc1ccc(CC(=O)Nc2ccc3ncnc(N4CCCC4)c3c2)cc1Cl', 'RP-LC retention time', 680),
  ('CC(C)NC(=O)c1ccc2c(c1)nc(CN1CCN(C(=O)NC(C)C)CC1)n2C', 'RP-LC retention time', 576),
  ('CCn1nc(C)c2ccnc(N3CCC(C(=O)N4CCN(c5ccc(Cl)cc5)CC4)CC3)c21', 'RP-LC retention time', 780),
  ('COc1ccc(S(=O)(=O)N2C[C@@H]3C[C@H]2C[C@@H]3NC(=O)c2cccs2)cc1Cl', 'RP-LC retention time', 792),
  ('COc1ccc(-c2nnc(-c3cccc(S(=O)(=O)N(C)C)c3)o2)cc1OC', 'RP-LC retention time', 816),
  ('O=C(Nc1cccnc1)c1ccccc1OCc1ccc(S(=O)(=O)N2CCOCC2)o1', 'RP-LC retention time', 594),
  ('CC1=C(c2ccccc2)S(=O)(=O)N=C1N1CCCN(C(=O)C2CCC2)CC1', 'RP-LC retention time', 769),
  ('COc1ccc(Cl)cc1S(=O)(=O)N1CCCC(C(=O)NCCc2ccccc2)C1 (configuration not stated)', 'RP-LC retention time', 935);

[P] COCCNC(=O)C1CCN(c2cnc(N3CCCC3)nc2)CC1
[Q] Cc1ccc(N(C)C(=O)CN2C(=O)CCCc3cc(S(=O)(=O)N4CCCCC4)ccc32)cc1
## Input Exercise: compare P and Q ; which one has the greater RP-LC retention time? To answer, give the label that identifies your chosen option.
## Output Q
